Tested on: A. baumannii ATCC BAA-1797
Experiment: MIC on A. baumannii ATCC BAA-1797
Type: cell-based
Settings: Acinetobacter baumannii, ATCCBAA1797, 18 h, read-out: MIC in the presence of 40% FBS, A. baumannii ATCC BAA-1797; 40% FBS
Measured MIC, listed per entry for reference.

MOL_SMILES | ASSAYED_SYSTEM | OBSERVED_PROPERTY | RESULT
COc1ccc(/N=N/c2c(-c3ccc(OC)cc3)[nH]c3ccccc23)cc1 | A. baumannii ATCC BAA-1797 | MIC | > 100 µM

Q. Look up MIC for this compound: CC(C)(C)OC(=O)Nc1cccc2[nH]cc(/C=N/Nc3ccc(Cl)cc3)c12
A. > 100 µM

Q. Look up MIC for this compound: Cl.Fc1ccc(N/N=C/c2c[nH]c3cccc(OCc4ccccc4)c23)cc1
A. 25 µM

---

Test system: S. aureus
Experiment: Evolution of resistance in S. aureus over 32 days
Type: cell-based
Conditions: Staphylococcus aureus, read-out: Final MIC Day 32
Measured MIC, listed per entry for reference.
Please state the figure in µM; there is no need to write the unit.

Observe how each entry below is paired with its result.
MOL_SMILES | ASSAYED_SYSTEM | MIC, µM
Brc1ccc(/N=N/c2c[nH]c3ccccc23)cc1 | S. aureus | 4
Clc1ccc(Oc2c(-c3ccc(Cl)cc3)[nH]c3ccccc23)cc1 | S. aureus | 1

Next item in the queue.
Q. Look up MIC for this compound: Clc1ccc(/N=N/c2c[nH]c3ccccc23)cc1
A. 8

---

Measured MIC, listed per entry for reference.
System: S. aureus
Assay: Evolution of resistance in S. aureus over 32 days
Type: cell-based
Conditions: Staphylococcus aureus, read-out: Final MIC Day 32

COMPOUND | MIC
CCn1cc(C(=O)O)c(=O)c2cc(F)c(N3CCNCC3)cc21 [Norfloxacin, reference compound] | > 100 µg/mL
Cc1onc(-c2ccccc2)c1C(=O)N[C@@H]1C(=O)N2[C@@H]1SC(C)(C)[C@@H]2C(=O)O [Oxacillin, reference compound] | > 200 µg/mL
COc1ccc(/N=N/c2c(-c3ccc(OC)cc3)[nH]c3ccccc23)cc1 | 1 to 2 µM

Next item in the queue.
Q. Look up MIC for this compound: Clc1ccc(Oc2c(-c3ccc(Cl)cc3)[nH]c3ccc(Cl)cc23)cc1
A. > 32 µM

The reported numbers originate from patent US12655101B2.
